Each item that follows carries a reported displacement.
subject-of-test: Bcl-2-like protein 10 (Homo sapiens)
protocol-text: TR3 peptide-Bcl-B binding displacers, biochemical primary FP assay, phenotype converters (AID 1240);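 note: 0% = Bcl-B with tracer peptide and DMSO and 100% = tracer peptide lacking Bcl-B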
particulars: GST-Bcl-B / FITC-TR3 peptide fluorescence polarization; stronger effect = higher value; compound at 3.75 mg/L
The campaign covered roughly 50,000 compounds. About 800 (1.6%) showed an effect of 50% or more. What follows is part of a selection rich in strong results, with near analogues and random picks from the rest.
Numeric only. Scale: %

compound	readout-number
O=C(Nc1ccncc1)c1cc2c(ccc3ccccc32)oc1=O	9.6

For CCOC(=O)C1=C(C)N=c2s/c(=C\c3cccc([N+](=O)[O-])c3)c(=O)n2C1c1cccc(OC)c1 (stereo not given) , what is its reported displacement?
4.1

Quick one: displacement of CCOC(=O)C1=C(C)N=c2s/c(=C\c3ccc(C)cc3)c(=O)n2C1c1cccc([N+](=O)[O-])c1 (stereo not given) ?
127

What value of measured displacement is listed for O=C(Nc1ccccc1)c1ccccc1N=Cc1ccc(C=Nc2ccccc2C(=O)Nc2ccccc2)cc1 ?
121

// query displacement value for entry CCOC(=O)C1=C(C)N=c2s/c(=C/c3cccc([N+](=O)[O-])c3)c(=O)n2C1c1ccccc1Cl (stereo not given)
10.2

Query: displacement; subject: Cc1cc(Cl)ccc1NC(=O)Cc1ccccc1
-10

What displacement value was documented for this compound, O=[N+]([O-])c1ccc(N2CCOCC2)cc1NC1CC1 ?
4

Using the record for COc1ccc(COCC(O)CN2CC(C)OC(C)C2)cc1OC (stereo not given) , report its displacement.
4

So what's the measured displacement for this one? Cc1cccc(NC(=O)c2cc3c(ccc4ccccc43)oc2=O)n1
-7

Quick check: displacement of O=C(Nc1ccccc1F)c1cncc(Br)c1 ?
3.9

The values you see were collected from PubChem BioAssay AID1240.
